# Target of assay: UniProt:Q12809
# Sequence (Q12809 whole entry): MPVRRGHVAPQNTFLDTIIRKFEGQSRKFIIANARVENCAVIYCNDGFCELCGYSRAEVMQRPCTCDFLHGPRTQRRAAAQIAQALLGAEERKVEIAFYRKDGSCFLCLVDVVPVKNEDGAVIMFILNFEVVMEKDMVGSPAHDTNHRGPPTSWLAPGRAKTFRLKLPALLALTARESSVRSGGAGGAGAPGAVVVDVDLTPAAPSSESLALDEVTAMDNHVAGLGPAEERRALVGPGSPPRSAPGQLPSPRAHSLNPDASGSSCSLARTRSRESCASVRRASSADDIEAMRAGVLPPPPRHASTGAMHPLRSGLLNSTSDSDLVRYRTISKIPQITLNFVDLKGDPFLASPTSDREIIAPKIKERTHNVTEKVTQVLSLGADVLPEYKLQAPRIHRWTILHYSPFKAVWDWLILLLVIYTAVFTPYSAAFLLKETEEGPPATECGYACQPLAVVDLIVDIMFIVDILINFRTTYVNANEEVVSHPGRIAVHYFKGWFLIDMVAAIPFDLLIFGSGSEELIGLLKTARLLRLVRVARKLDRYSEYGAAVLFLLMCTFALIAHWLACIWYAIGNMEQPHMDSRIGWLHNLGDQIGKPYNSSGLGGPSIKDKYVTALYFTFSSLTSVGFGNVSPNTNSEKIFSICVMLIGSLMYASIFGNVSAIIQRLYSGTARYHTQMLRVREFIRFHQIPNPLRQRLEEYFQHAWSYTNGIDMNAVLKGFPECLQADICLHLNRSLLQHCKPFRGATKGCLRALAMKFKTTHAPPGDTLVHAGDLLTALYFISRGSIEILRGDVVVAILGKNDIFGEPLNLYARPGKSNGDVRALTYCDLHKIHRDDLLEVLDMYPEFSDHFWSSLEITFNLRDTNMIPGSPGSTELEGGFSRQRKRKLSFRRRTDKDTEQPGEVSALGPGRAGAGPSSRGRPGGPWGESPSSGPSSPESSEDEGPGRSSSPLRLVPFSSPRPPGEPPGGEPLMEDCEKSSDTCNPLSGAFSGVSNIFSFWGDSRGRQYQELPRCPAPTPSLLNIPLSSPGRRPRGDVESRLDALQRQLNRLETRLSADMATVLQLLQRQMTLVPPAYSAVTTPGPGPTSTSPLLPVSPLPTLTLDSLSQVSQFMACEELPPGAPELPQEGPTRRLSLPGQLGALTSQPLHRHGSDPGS
# Experiment notes: hERG Manual Patch Clamp Assay (HEK 293 cells stably expressing hERG channels)
# Assay type: cell-based
# Study conditions: human, HEK 293 cells stably expressing hERG channels, pH 7.4
Please go through the items and note down their inhibition at 1 µM.
Numbers only, in %.

The cases that follow already have their inhibition at 1 µM on record.
molecule="CC(=O)N[C@@H](CNCc1cnn(-c2cc(C)c(C#N)cn2)c1)c1ccc2c(c1C)COC2=O [Example 39]" value_type="inhibition at 1 µM" measurement=2.6
molecule="Cc1cc(-c2ccc(CN(C)CC(O)c3ccc4c(c3C)COC4=O)cc2)ncc1C#N (single isomer, unassigned) [Example 31-I]" value_type="inhibition at 1 µM" measurement=39
molecule="CNc1cc(-n2cc(CNC[C@H](O)c3ccc4c(c3C)COC4=O)cn2)ncc1C#N [Example 146]" value_type="inhibition at 1 µM" measurement=61

Give measured inhibition at 1 µM for every item shown.
1. Cc1c(C(O)CNCc2ccc(-c3ccc(C#N)c(F)c3)nc2)ccc2c1COC2=O (stereo not shown) [Example 3-I]
2. Cc1c(C(O)CN(C)Cc2ccc(-c3ccc(C#N)c(F)c3)cc2)ccc2c1COC2=O (single isomer, unassigned) [Example 27-I]
3. Cc1c(C(O)CN(C)Cc2ccc(-n3ccc4c(C#N)cccc43)cc2)ccc2c1COC2=O (single isomer, unassigned) [Example 28-I]
4. COc1nn(-c2ccc(CNC[C@H](O)c3ccc4c(c3C)COC4=O)cn2)cc1C#N [Example 104]

1. 66
2. 95
3. 94
4. 42
